- study-system: JAK 1 (Homo sapiens)
- experimental-details: Biochemical potency on JAK1, TR-FRET LANCE Ultra kinase assay (examples 1-99)
- assay-context: ATP at Km (20 μM), read-out: JAK1 inhibitory activity (pIC50 class) (converted)
Below: a set of entries, each annotated with reported IC50.

Completed entries (count: 5):
INSERT INTO measurements (compound, quantity_name, val) VALUES
  ('CSc1ccc(OC(F)F)c(-n2nc(NCCCN(C)C)c3cnc(-c4cnn5cccnc45)cc32)c1 [Example 46]', 'IC50', '5.01 to 50.1 nM'),
  ('CNCc1nn(-c2cc(S(C)(=O)=O)ccc2OC)c2cc(-c3cnn4cccnc34)ncc12 [Example 89]', 'IC50', '5.01 to 50.1 nM'),
  ('NC1CN(Cc2nn(-c3cc(Cl)ccc3OC(F)F)c3cc(-c4cnn5cccnc45)ncc23)C1 [Example 76]', 'IC50', '5.01 to 50.1 nM'),
  ('COc1ccc(Cl)cc1-n1nc(N(C)C)c2cnc(-c3cnn4cccnc34)cc21 [Example 42]', 'IC50', '5.01 to 50.1 nM'),
  ('COc1ccc(S(C)(=O)=O)cc1-n1nc(C(=O)NCCN(C)C)c2cnc(-c3cnn4cccnc34)cc21 [Example 82]', 'IC50', '5.01 to 50.1 nM');

Incoming: Fill in: IC50 of COCCS(=O)(=O)c1ccc(OC(F)F)c(-n2nc(C)c3cnc(-c4cnn5cccnc45)cc32)c1 [Example 20] is ___
Outgoing: 5.01 to 50.1 nM

Incoming: Queued: NCc1nn(-c2cc(Cl)ccc2OC(F)F)c2cc(-c3cnn4cccnc34)ncc12 [Example 32]
Outgoing: 5.01 to 50.1 nM

Incoming: Try this compound too: Cc1nn(-c2cc(Br)ccc2OC(F)F)c2cc(-c3cnn4cccnc34)ncc12 [Example 63]
Outgoing: ≤ 5.01 nM

Incoming: Further, for COc1ccc(C(F)F)cc1-n1nc(NCCN(C)C)c2cnc(Nc3ncc[nH]c3=O)cc21 [Example 98] ?
Outgoing: 5.01 to 50.1 nM

Incoming: Continue with Cc1nn(-c2cc(Cl)ccc2O)c2cc(-c3cnn4cccnc34)ncc12 [Example 12]
Outgoing: 5.01 to 50.1 nM

Incoming: Try the compound COc1ccc(Cl)cc1-n1nc(OC)c2cnc(-c3cnn4cccnc34)cc21 [Example 50]
Outgoing: 5.01 to 50.1 nM

* * *

- study-system: JAK 1 (Homo sapiens, UniProt P23458)
- Sequence (P23458 whole entry): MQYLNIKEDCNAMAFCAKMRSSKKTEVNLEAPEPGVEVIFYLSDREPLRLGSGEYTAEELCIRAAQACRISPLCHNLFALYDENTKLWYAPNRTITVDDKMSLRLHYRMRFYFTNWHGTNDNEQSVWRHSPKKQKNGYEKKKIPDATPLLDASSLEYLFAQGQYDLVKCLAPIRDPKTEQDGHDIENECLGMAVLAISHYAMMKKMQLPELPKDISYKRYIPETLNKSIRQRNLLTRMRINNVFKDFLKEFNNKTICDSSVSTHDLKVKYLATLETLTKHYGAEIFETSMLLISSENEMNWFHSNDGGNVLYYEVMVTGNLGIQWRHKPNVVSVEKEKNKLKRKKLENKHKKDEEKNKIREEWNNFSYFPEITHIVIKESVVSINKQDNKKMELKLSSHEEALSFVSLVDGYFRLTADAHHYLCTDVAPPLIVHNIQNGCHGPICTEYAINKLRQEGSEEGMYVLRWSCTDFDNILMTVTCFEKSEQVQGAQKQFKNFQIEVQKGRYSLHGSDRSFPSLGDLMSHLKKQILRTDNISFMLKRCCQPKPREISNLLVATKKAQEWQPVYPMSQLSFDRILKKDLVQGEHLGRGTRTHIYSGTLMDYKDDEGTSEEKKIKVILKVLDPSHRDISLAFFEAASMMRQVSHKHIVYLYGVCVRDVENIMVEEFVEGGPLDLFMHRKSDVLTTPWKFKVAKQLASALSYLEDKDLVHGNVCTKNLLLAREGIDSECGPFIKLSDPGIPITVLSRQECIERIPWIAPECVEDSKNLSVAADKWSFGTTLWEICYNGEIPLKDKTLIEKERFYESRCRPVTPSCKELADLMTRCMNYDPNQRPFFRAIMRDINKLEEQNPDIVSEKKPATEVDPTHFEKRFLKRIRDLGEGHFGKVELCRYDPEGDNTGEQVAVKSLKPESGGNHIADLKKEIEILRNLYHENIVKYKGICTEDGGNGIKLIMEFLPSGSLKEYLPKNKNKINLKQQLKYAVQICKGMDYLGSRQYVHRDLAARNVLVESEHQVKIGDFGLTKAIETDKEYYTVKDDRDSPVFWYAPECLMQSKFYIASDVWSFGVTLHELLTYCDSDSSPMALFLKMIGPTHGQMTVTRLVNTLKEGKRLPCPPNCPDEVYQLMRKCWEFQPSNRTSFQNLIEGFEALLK
- experimental-details: Biochemical potency on JAK1, TR-FRET LANCE Ultra kinase assay (examples 1-99)
- assay-context: ATP at Km (20 μM), read-out: JAK1 inhibitory activity (pIC50 class) (converted)
quantity-name: IC50

Examples with their reported IC50 follow.
INSERT INTO measurements (sample_smiles, quantity_name, val) VALUES
  ('Cc1nn(-c2cc(S(=O)(=O)CCCN(C)C)ccc2OC(F)F)c2cc(-c3cnn4cccnc34)ncc12', 'IC50', '5.01 to 50.1 nM'),
  ('CNc1nn(-c2cc(S(C)(=O)=O)ccc2OC)c2cc(-c3cnn4cccnc34)ncc12', 'IC50', '> 50.1 nM'),
  ('Cc1nn(-c2cc(SC3CCNCC3)ccc2OC(F)F)c2cc(-c3cnn4cccnc34)ncc12', 'IC50', '> 50.1 nM'),
  ('COc1ccc(C(F)F)cc1-n1nc(C)c2cnc(-c3cnn4cccnc34)cc21', 'IC50', '5.01 to 50.1 nM'),
  ('COc1ccc(S(=O)(=O)NCCN2CCOCC2)cc1-n1nc(C)c2cnc(-c3cnn4cccnc34)cc21', 'IC50', '5.01 to 50.1 nM');

// moving on: another record for IC50
Incoming: Which IC50 is reported for this compound? `COc1ccc(Cl)cc1-n1ncc2c(NC(C)=O)nc(-c3cnn4cccnc34)cc21`
Outgoing: 5.01 to 50.1 nM

* * *

- study-system: UniProt:O60674
- Sequence (O60674 whole entry): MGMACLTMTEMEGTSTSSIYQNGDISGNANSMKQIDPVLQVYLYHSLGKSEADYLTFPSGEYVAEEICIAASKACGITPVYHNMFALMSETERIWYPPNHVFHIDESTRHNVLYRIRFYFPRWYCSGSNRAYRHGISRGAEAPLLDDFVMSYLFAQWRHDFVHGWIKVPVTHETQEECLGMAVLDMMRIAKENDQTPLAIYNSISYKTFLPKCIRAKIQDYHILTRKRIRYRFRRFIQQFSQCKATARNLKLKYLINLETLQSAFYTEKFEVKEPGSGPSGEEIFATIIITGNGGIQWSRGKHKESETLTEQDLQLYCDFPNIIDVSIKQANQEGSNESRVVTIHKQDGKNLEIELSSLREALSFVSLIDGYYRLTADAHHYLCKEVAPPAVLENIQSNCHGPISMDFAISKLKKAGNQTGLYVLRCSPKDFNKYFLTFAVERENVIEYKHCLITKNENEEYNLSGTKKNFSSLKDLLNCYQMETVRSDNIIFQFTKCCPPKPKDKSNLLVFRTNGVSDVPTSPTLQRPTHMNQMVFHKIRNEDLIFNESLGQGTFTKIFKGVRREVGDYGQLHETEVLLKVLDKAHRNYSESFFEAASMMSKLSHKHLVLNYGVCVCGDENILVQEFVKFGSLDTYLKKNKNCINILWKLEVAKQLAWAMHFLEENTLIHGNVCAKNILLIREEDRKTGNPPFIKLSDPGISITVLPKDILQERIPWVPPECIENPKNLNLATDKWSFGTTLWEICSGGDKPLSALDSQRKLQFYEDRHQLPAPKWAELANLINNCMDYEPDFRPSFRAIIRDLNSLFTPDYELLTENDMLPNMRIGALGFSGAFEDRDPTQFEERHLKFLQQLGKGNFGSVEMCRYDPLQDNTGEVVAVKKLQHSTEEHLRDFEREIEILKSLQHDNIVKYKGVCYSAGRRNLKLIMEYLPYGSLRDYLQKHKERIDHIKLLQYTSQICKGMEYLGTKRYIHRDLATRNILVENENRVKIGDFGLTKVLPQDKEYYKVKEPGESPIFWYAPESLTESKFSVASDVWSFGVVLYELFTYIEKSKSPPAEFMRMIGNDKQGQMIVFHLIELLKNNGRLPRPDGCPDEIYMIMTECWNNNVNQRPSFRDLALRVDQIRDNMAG
- experimental-details: Biochemical potency on JAK2, TR-FRET LANCE Ultra kinase assay (examples 1-99)
- assay-context: ATP at Km (0.7 μM), read-out: JAK2 inhibitory activity (pIC50 class) (converted)
- Procedure: The objective of this study was to assess the capability of compounds to inhibit all 4 JAK isoforms activity in a cell-free environment. Assay for JAK 1, JAK 2, JAK 3 and TYK2 were performed by Time-resolved fluorescence resonance energy transfer (TR-FRET) technology. It consists in the interaction of two labelled binding partners detected by the energy transfer from an excited donor to an acceptor dye and measurement of light emission by the acceptor dye. LANCE Ultra kinase assay was used. […]
quantity-name: IC50

Example entries and their recorded answers appear below.
INSERT INTO results (molecule, val) VALUES
  ('CNCc1nn(-c2cc(Cl)ccc2OC(F)F)c2cc(-c3cnn4cccnc34)ncc12 [Example 31]', '5.01 to 50.1 nM'),
  ('OCc1nn(-c2cc(Cl)ccc2OC(F)F)c2cc(-c3cnn4cccnc34)ncc12 [Example 29]', '≤ 5.01 nM'),
  ('Cc1nn(-c2cc(S(C)(=O)=O)ccc2OC(F)F)c2cc(Nc3ncc[nH]c3=O)ncc12 [Example 94]', '≤ 5.01 nM');

Incoming: Lab note: need IC50 for COc1ccc(Cl)cc1-n1nc(N)c2cnc(-c3cnn4cccnc34)cc21 [Example 39] on UniProt:O60674, anyone have it?
Outgoing: ≤ 5.01 nM

Incoming: Please answer likewise for CNCC(=O)Nc1nn(-c2cc(Cl)ccc2OC)c2cc(-c3cnn4cccnc34)ncc12 [Example 87]
Outgoing: ≤ 5.01 nM

* * *

- study-system: TYK2 (Homo sapiens, UniProt P29597)
- Sequence (P29597 whole entry): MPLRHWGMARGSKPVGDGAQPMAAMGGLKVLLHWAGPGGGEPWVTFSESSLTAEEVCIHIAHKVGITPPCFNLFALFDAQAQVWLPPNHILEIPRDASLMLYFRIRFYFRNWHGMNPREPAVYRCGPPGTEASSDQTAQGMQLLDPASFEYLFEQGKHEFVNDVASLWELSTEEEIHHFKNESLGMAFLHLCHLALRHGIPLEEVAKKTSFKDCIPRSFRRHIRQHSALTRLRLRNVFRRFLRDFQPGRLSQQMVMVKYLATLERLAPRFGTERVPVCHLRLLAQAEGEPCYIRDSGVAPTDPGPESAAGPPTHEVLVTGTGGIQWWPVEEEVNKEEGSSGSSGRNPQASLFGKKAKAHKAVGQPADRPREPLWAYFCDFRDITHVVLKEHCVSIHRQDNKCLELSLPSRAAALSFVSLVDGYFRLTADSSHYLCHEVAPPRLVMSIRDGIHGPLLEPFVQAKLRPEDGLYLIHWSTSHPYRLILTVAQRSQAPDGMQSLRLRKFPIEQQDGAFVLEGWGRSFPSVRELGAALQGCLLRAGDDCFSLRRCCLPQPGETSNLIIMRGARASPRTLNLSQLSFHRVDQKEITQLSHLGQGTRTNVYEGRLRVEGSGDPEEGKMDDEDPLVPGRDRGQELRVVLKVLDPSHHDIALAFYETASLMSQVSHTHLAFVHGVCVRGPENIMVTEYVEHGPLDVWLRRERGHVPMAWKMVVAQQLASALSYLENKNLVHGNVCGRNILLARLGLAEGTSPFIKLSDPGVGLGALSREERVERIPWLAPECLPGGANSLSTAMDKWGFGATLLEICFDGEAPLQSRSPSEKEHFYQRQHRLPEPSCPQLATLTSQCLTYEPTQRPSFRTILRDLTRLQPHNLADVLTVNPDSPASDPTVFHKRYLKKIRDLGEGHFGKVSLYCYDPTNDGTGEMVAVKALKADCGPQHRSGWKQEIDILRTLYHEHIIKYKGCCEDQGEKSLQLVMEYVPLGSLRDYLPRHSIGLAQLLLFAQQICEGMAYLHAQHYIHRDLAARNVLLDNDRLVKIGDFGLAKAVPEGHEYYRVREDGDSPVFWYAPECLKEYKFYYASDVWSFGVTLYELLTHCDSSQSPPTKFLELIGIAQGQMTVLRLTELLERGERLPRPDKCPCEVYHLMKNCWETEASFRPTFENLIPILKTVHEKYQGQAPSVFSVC
- experimental-details: Biochemical potency on Tyk2, TR-FRET LANCE Ultra kinase assay (examples 1-99)
- assay-context: ATP at Km (12 μM), read-out: Tyk2 inhibitory activity (pIC50 class) (converted)
- Description: The objective of this study was to assess the capability of compounds to inhibit all 4 JAK isoforms activity in a cell-free environment. Assay for JAK 1, JAK 2, JAK 3 and TYK2 were performed by Time-resolved fluorescence resonance energy transfer (TR-FRET) technology. It consists in the interaction of two labelled binding partners detected by the energy transfer from an excited donor to an acceptor dye and measurement of light emission by the acceptor dye. LANCE Ultra kinase assay was used. […]
We begin with a simple list: items and their reported IC50.

Recorded results for 8 compounds are shown here.
INSERT INTO results (compound, quantity_name, val) VALUES
  ('COc1ccc(Cl)cc1-n1nc(C(=O)N[C@H]2C[C@@H](O)C2)c2cnc(-c3cnn4cccnc34)cc21 [Example 34]', 'IC50', '> 50.1 nM'),
  ('COc1ccc(S(C)(=O)=O)cc1-n1nc(C(=O)NCCN(C)C)c2cnc(-c3cnn4cccnc34)cc21 [Example 82]', 'IC50', '> 50.1 nM'),
  ('N[C@H]1C[C@@H](NC(=O)c2nn(-c3cc(Cl)ccc3OC(F)F)c3cc(-c4cnn5cccnc45)ncc23)C1 [Example 81]', 'IC50', '> 50.1 nM'),
  ('COCCSc1ccc(OC(F)F)c(-n2nc(C)c3cnc(Nc4ncc[nH]c4=O)cc32)c1 [Example 93]', 'IC50', '5.01 to 50.1 nM'),
  ('CNC(=O)c1nn(-c2cc(Cl)ccc2OC(F)F)c2cc(-c3cnn4cccnc34)ncc12 [Example 33]', 'IC50', '5.01 to 50.1 nM'),
  ('COc1ccc(C(F)F)cc1-n1nc(C)c2cnc(Nc3ncc[nH]c3=O)cc21 [Example 91]', 'IC50', '5.01 to 50.1 nM'),
  ('CC(=O)N1CCC(S(=O)(=O)c2ccc(OC(F)F)c(-n3nc(C)c4cnc(-c5cnn6cccnc56)cc43)c2)C1 (stereo not shown) [Example 24]', 'IC50', '> 50.1 nM'),
  ('Cc1nn(-c2cc(Cl)ccc2OC(F)F)c2cc(Nc3ncc[nH]c3=O)ncc12 [Example 99]', 'IC50', '5.01 to 50.1 nM');

Incoming: What reported IC50 corresponds to COc1ccc(C(F)F)cc1-n1nc(NCCN(C)C)c2cnc(-c3cnn4cccnc34)cc21 [Example 44] on TYK2 (Homo sapiens, UniProt P29597)?
Outgoing: 5.01 to 50.1 nM

Incoming: Let us now turn to Cc1nn(-c2cc(SCC(N)=O)ccc2OC(F)F)c2cc(-c3cnn4cccnc34)ncc12 [Example 68]
Outgoing: > 50.1 nM

Incoming: Repeat with Cc1ccc(OC(F)F)c(-n2nc(C)c3cnc(-c4cnn5cccnc45)cc32)c1 [Example 65]
Outgoing: 5.01 to 50.1 nM

* * *

# reported IC50; entries follow
- study-system: JAK 3 (Homo sapiens)
- Sequence (P52333 whole entry): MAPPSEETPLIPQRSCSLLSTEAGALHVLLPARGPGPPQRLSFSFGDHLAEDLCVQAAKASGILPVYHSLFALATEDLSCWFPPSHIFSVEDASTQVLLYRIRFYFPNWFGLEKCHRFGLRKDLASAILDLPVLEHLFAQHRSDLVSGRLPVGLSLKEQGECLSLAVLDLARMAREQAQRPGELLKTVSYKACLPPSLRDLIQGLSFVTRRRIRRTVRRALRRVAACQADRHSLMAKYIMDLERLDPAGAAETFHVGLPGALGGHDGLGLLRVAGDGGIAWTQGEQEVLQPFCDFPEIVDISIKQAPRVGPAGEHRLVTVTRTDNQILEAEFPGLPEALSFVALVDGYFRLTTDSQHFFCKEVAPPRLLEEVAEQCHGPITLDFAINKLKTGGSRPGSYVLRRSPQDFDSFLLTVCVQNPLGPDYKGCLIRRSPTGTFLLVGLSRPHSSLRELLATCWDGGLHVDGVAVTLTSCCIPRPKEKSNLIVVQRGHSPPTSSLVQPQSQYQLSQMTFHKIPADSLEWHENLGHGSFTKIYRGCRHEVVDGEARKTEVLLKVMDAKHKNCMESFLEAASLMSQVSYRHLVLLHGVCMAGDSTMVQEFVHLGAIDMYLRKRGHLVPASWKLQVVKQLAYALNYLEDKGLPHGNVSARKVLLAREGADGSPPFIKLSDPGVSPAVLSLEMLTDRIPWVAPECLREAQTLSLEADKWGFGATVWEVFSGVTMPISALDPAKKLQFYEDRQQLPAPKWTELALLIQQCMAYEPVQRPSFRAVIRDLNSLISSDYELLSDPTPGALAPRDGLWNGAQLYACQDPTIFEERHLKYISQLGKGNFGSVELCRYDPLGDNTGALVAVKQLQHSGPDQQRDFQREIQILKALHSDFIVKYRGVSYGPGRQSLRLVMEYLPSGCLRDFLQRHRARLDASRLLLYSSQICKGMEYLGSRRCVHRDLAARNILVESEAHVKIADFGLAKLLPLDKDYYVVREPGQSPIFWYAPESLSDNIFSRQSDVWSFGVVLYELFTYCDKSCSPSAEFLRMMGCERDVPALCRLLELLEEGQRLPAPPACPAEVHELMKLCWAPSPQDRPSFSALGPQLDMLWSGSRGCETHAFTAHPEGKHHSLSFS
- experimental-details: Biochemical potency on JAK3, TR-FRET LANCE Ultra kinase assay (examples 1-99)
- assay-context: ATP at Km (0.2 μM), read-out: JAK3 inhibitory activity (pIC50 class) (converted)
- Method: The objective of this study was to assess the capability of compounds to inhibit all 4 JAK isoforms activity in a cell-free environment. Assay for JAK 1, JAK 2, JAK 3 and TYK2 were performed by Time-resolved fluorescence resonance energy transfer (TR-FRET) technology. It consists in the interaction of two labelled binding partners detected by the energy transfer from an excited donor to an acceptor dye and measurement of light emission by the acceptor dye. LANCE Ultra kinase assay was used. […]

INSERT INTO measurements (sample_smiles, val) VALUES
  ('Cc1nn(-c2cc(SC3CC3)ccc2OC(F)F)c2cc(-c3cnn4cccnc34)ncc12', '5.01 to 50.1 nM'),
  ('Cc1nn(-c2cc(Cl)ccc2OC(F)F)c2cc(Nc3ncc[nH]c3=O)ncc12', '≤ 5.01 nM'),
  ('Cc1nn(-c2cc(S(=O)(=O)CC(N)=O)ccc2OC(F)F)c2cc(-c3cnn4cccnc34)ncc12', '≤ 5.01 nM'),
  ('Cc1nn(-c2cc(S(=O)(=O)CCN3CCCCC3)ccc2OC(F)F)c2cc(-c3cnn4cccnc34)ncc12', '5.01 to 50.1 nM'),
  ('COc1ccc(OC)c(-n2nc(C)c3cnc(-c4cnn5cccnc45)cc32)c1', '5.01 to 50.1 nM');

Incoming: Looking for the measured IC50 of `N#CCc1nn(-c2cc(Cl)ccc2OC(F)F)c2cc(-c3cnn4cccnc34)ncc12` , can you help?
Outgoing: ≤ 5.01 nM

Incoming: Again, but for `Cc1nn(-c2cc(S(C)(=O)=O)ccc2OC(F)F)c2cc(Nc3ncc[nH]c3=O)ncc12`
Outgoing: ≤ 5.01 nM

Incoming: Then what about the compound `COc1ccc(C)cc1-n1nc(NCCN(C)C)c2cnc(-c3cnn4cccnc34)cc21` ?
Outgoing: 5.01 to 50.1 nM
